- Species on record: Mus musculus
- ASSAY EXPLANATION: Lymphocyte Proliferation Stimulatory effect was tested on mouse spleen cells and evaluated for at 6 h [3H]TdR (tritium-thymidine) pulse and uptake into cells at 1 ng/mL
- Assay type: functional
Provide the recorded Control for the entries that follow.
Please respond with the number in % and leave the unit unwritten.

Q. Respond only with Control recorded for CCCCCCCCCCCCCCCCCCCCCCCC[C@@H](O)C(=O)N[C@@H](CO[C@H]1O[C@@H](CO)[C@H](O)[C@H](O)[C@@H]1O)[C@H](O)[C@H](O)CCCCCCCCCCCCCCC
A. 221

Q. Respond only with Control recorded for CCCCCCCCCCCCCCCCCCCCCC[C@@H](O)C(=O)N[C@@H](CO[C@H]1O[C@@H](CO)[C@H](O)[C@H](O)[C@@H]1O)[C@H](O)CCCCCCCCCCCCCCC
A. 397

Q. Respond only with Control recorded for CCCCCCCCCCCCCCCCCCCCCCCC(=O)N[C@@H](CO[C@H]1O[C@@H](CO)[C@H](O)[C@H](O)[C@@H]1O)[C@H](O)CCCCCCCCCCCCCCC
A. 1115

Q. Respond only with Control recorded for CCCCCCCCCCCCCCC[C@@H](O)[C@H](CO[C@H]1O[C@@H](CO)[C@H](O)[C@H](O)[C@@H]1O)NC(=O)CCCCCCCCCCCCC
A. 249

----------
- Test system: B16
- ASSAY EXPLANATION: Tumor Growth Inhibitory effect (TGIR) on mice subcutaneously inoculated with B16 cells (compound plus MMC)
- Assay type: functional, Mus musculus
- Set-up: concentration or dose not given beside the values
Provide the recorded Control for the entries that follow.
Please respond with the number in % and leave the unit unwritten.

Q. Fill: Control (B16) for this molecule CCCCCCCCCCCCCCCCCCCCCCCC(=O)N[C@@H](CO[C@H]1O[C@@H](CO)[C@H](O)[C@H](O)[C@@H]1O)[C@H](O)[C@H](O)CCCCCCCCCCCCCC
A. 90.8

Q. Fill: Control (B16) for this molecule CCCCCCCCCCCCCCCCCCCCCCCCCC(=O)N[C@@H](CO[C@H]1O[C@H](CO)[C@H](O)[C@H](O)[C@H]1O)[C@H](O)[C@H](O)CCCCCCCCCCCCCC
A. 86.7

Q. Fill: Control (B16) for this molecule CCCCCCCCCCCCCCCCCCCC(=O)N[C@@H](CO[C@H]1O[C@@H](CO)[C@H](O)[C@H](O)[C@@H]1O)[C@H](O)CCCCCCCCCCCCCCC
A. 90.4

Q. Fill: Control (B16) for this molecule CCCCCCCCCCCCCCCCCCCCCC[C@@H](O)C(=O)N[C@@H](CO[C@H]1O[C@@H](CO)[C@H](O)[C@H](O)[C@@H]1O)[C@H](O)[C@H](O)CCCCCCCCCCC
A. 77.4

Q. Fill: Control (B16) for this molecule CCCCCCCCCCCCCCCCCCCCCC[C@@H](O)C(=O)N[C@@H](CO[C@H]1O[C@@H](CO)[C@H](O)[C@H](O)[C@@H]1O)[C@H](O)[C@H](O)CCCCCCC
A. 85.1

Q. Fill: Control (B16) for this molecule CCCCCCCCCCCCCCCCCCCCCCCC[C@@H](O)C(=O)N[C@@H](CO[C@H]1O[C@@H](CO)[C@H](O)[C@H](O)[C@@H]1O)[C@H](O)[C@H](O)CCCCCCCCCCCCCC
A. 97.7

Q. Fill: Control (B16) for this molecule CCCCCCCCCCCCCCCCCCCCCC[C@@H](O)C(=O)N[C@@H](CO[C@H]1O[C@@H](CO)[C@H](O)[C@H](O)[C@@H]1O)[C@H](O)CCCCCCCCCCCCCCC
A. 98.5

Q. Fill: Control (B16) for this molecule CCCCCCCCCCCCCCCCCCCCCCCC[C@@H](O)C(=O)N[C@@H](CO[C@H]1O[C@@H](CO)[C@H](O)[C@H](O)[C@@H]1O)[C@H](O)[C@H](O)CCCCCCCCCCCCCCC
A. 97.1

Q. Fill: Control (B16) for this molecule CCCCCCCCCCCCCCCCCCCCCC[C@@H](O)C(=O)N[C@@H](CO[C@H]1O[C@@H](CO)[C@H](O)[C@H](O)[C@@H]1O)[C@H](O)[C@H](O)CCCCCCCCCCCCC
A. 90.6

Q. Fill: Control (B16) for this molecule CCCCCCCCCCCCCCCCCCCCCC(=O)N[C@@H](CO[C@H]1O[C@@H](CO)[C@H](O)[C@H](O)[C@@H]1O)[C@H](O)CCCCCCCCCCCCCCC
A. 85

Q. Fill: Control (B16) for this molecule CCCCCCCCCCCCCCCCCCCCCCCC[C@@H](O)C(=O)N[C@@H](CO[C@H]1O[C@@H](CO)[C@H](O)[C@H](O)[C@@H]1O)[C@H](O)[C@H](O)CCCCCCCCCCCCCCCC
A. 94.3

Q. Fill: Control (B16) for this molecule CCCCCCCCCCCCCCCCCCCCCC[C@@H](O)C(=O)N[C@@H](CO[C@H]1O[C@@H](CO)[C@H](O)[C@H](O)[C@@H]1O)[C@H](O)[C@H](O)CCCCCCCCCCCC(C)C (stereo in doubt; form 1)
A. 94.6

Q. Fill: Control (B16) for this molecule CCCCCCCCCCCCCCCCCCCCCC[C@@H](O)C(=O)N[C@@H](CO[C@H]1O[C@@H](CO)[C@H](O)[C@H](O)[C@@H]1O)[C@H](O)[C@H](O)CCCCCCCCCCCCCC
A. 91.9

Q. Fill: Control (B16) for this molecule CCCCCCCCCCCCCCCCCCCCCCCC(=O)N[C@@H](CO[C@H]1O[C@@H](CO)[C@H](O)[C@H](O)[C@@H]1O)[C@H](O)CCCCCCCCCCCCCCC
A. 99.1

Q. Fill: Control (B16) for this molecule CCCCCCCCCCCCCCC[C@@H](O)[C@H](CO[C@H]1O[C@@H](CO)[C@H](O)[C@H](O)[C@@H]1O)NC(=O)CCCCCCCCCCCCC
A. 84.4

Q. Fill: Control (B16) for this molecule CCCCCCCCCCCCCCCCCC(=O)N[C@@H](CO[C@H]1O[C@@H](CO)[C@H](O)[C@H](O)[C@@H]1O)[C@H](O)CCCCCCCCCCCCCCC
A. 80.3

Q. Fill: Control (B16) for this molecule CCCCCCCCCCCCCCCCCCCCCCCC(=O)N[C@H](CCCCCCCCCCCCCCCC)CO[C@H]1O[C@@H](CO)[C@H](O)[C@H](O)[C@@H]1O
A. 91.4

----------
- Organism: Mus musculus
- ASSAY EXPLANATION: Lymphocyte Proliferation Stimulatory effect was tested on mouse spleen cells and evaluated for at 6 h [3H]TdR (tritium-thymidine) pulse and uptake into cells at 10 ng/mL
- Assay type: functional
Mark Satisfied for reported Control of 500% or greater; mark Not satisfied for anything smaller.

Q. Has CCCCCCCCCCCCCCCCCCCCCC[C@@H](O)C(=O)N[C@@H](CO[C@H]1O[C@@H](CO)[C@H](O)[C@H](O)[C@@H]1O)[C@H](O)[C@H](O)CCCCCCCCCCCC(C)C (stereo in doubt; form 1) a recorded Control greater than or equal to 500%?
A. Satisfied

Q. Has CCCCCCCCCCCCCCCCCCCCCCCC[C@@H](O)C(=O)N[C@@H](CO[C@H]1O[C@@H](CO)[C@H](O)[C@H](O)[C@@H]1O)[C@H](O)[C@H](O)CCCCCCCCCCCCCCCC a recorded Control greater than or equal to 500%?
A. Not satisfied

Q. Has CCCCCCCCCCCCCCCCCCCCCC[C@@H](O)C(=O)N[C@@H](CO[C@H]1O[C@@H](CO)[C@H](O)[C@H](O)[C@@H]1O)[C@H](O)[C@H](O)CCCCCCCCCCCCCC a recorded Control greater than or equal to 500%?
A. Satisfied

Q. Has CCCCCCCCCCCCCCCCCCCCCCCC(=O)N[C@H](CCCCCCCCCCCCCCCC)CO[C@H]1O[C@@H](CO)[C@H](O)[C@H](O)[C@@H]1O a recorded Control greater than or equal to 500%?
A. Not satisfied

Q. Has CCCCCCCCCCCCCCCCCCCCCCCC[C@@H](O)C(=O)N[C@@H](CO[C@H]1O[C@@H](CO)[C@H](O)[C@H](O)[C@@H]1O)[C@H](O)[C@H](O)CCCCCCCCCCCCCC a recorded Control greater than or equal to 500%?
A. Not satisfied

Q. Has CCCCCCCCCCCCCCCCCCCCCC[C@@H](O)C(=O)N[C@@H](CO[C@H]1O[C@@H](CO)[C@H](O)[C@H](O)[C@@H]1O)[C@H](O)CCCCCCCCCCCCCCC a recorded Control greater than or equal to 500%?
A. Satisfied

Q. Has CCCCCCCCCCCCCCCCCCCCCC(=O)N[C@@H](CO[C@H]1O[C@@H](CO)[C@H](O)[C@H](O)[C@@H]1O)[C@H](O)CCCCCCCCCCCCCCC a recorded Control greater than or equal to 500%?
A. Satisfied

Q. Has CCCCCCCCCCCCCCCCCCCCCCCC(=O)N[C@@H](CO[C@H]1O[C@@H](CO)[C@H](O)[C@H](O)[C@@H]1O)[C@H](O)[C@H](O)CCCCCCCCCCCCCC a recorded Control greater than or equal to 500%?
A. Satisfied

Q. Has CCCCCCCCCCCCCCCCCCCCCC[C@@H](O)C(=O)N[C@@H](CO[C@H]1O[C@@H](CO)[C@H](O)[C@H](O)[C@@H]1O)[C@H](O)[C@H](O)CCCCCCCCCCC a recorded Control greater than or equal to 500%?
A. Satisfied

Q. Has CCCCCCCCCCCCCCCCCCCCCC[C@@H](O)C(=O)N[C@@H](CO[C@H]1O[C@@H](CO)[C@H](O)[C@H](O)[C@@H]1O)[C@H](O)[C@H](O)CCCCCCC a recorded Control greater than or equal to 500%?
A. Satisfied

Q. Has CCCCCCCCCCCCCCCCCCCC(=O)N[C@@H](CO[C@H]1O[C@@H](CO)[C@H](O)[C@H](O)[C@@H]1O)[C@H](O)CCCCCCCCCCCCCCC a recorded Control greater than or equal to 500%?
A. Satisfied

Q. Has CCCCCCCCCCCCCCCCCCCCCC[C@@H](O)C(=O)N[C@@H](CO[C@H]1O[C@@H](CO)[C@H](O)[C@H](O)[C@@H]1O)[C@H](O)[C@H](O)CCCCCCCCCCCCC a recorded Control greater than or equal to 500%?
A. Satisfied

Q. Has CCCCCCCCCCCCCCC[C@@H](O)[C@H](CO[C@H]1O[C@@H](CO)[C@H](O)[C@H](O)[C@@H]1O)NC(=O)CCCCCCCCCCCCC a recorded Control greater than or equal to 500%?
A. Satisfied

Q. Has CCCCCCCCCCCCCCCCCCCCCCCC(=O)N[C@@H](CO[C@H]1O[C@@H](CO)[C@H](O)[C@H](O)[C@@H]1O)[C@H](O)CCCCCCCCCCCCCCC a recorded Control greater than or equal to 500%?
A. Satisfied

Q. Has CCCCCCCCCCCCCCCCCC(=O)N[C@@H](CO[C@H]1O[C@@H](CO)[C@H](O)[C@H](O)[C@@H]1O)[C@H](O)CCCCCCCCCCCCCCC a recorded Control greater than or equal to 500%?
A. Not satisfied
